B1: Osa-1-4 twister ribozyme (parent)
chain: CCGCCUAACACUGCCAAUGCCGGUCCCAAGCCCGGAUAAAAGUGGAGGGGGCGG

variants of: B1; experiment: self-cleavage, relative activity (ratio to wild type); higher = more cleavage; co-transcriptional
Would you please tag the item true when its self-cleavage is 0.1 or above, and false when it is below?

As a guide, the following entries are already answered.
Variant code	Class name
G13A G35C	false
G30U G34U	false
A36C G30C	false
G47U G53A	true
C20A G23C	false
G35C G47C	false
G50U U43C	true
C26G G22A	true
A41C C11G	true
A16C U12G	false

Problem: Is it the case that C52A G45C has self-cleavage reaching or exceeding 0.1?
Result: false

Problem: Is it the case that A10G C52G has self-cleavage reaching or exceeding 0.1?
Result: true

Problem: Is it the case that A46G G45U has self-cleavage reaching or exceeding 0.1?
Result: false

Problem: Is it the case that G22A G23C has self-cleavage reaching or exceeding 0.1?
Result: false

Problem: Is it the case that C21G U24C has self-cleavage reaching or exceeding 0.1?
Result: false

Problem: Is it the case that A29G G42A has self-cleavage reaching or exceeding 0.1?
Result: false

Values were extracted from the RNAGym collection of RNA variant scans (doi:10.1002/anie.201605470).
